Sourced from patent US20160222085A1

biological target: T1, FV-810 (FV-DT), Factor V with amino acids 811-1491 deleted from the B-domain (human, UniProt P12259 29-838; P12259 1520-2224); assay: fluorescence anisotropy; buffer-pretreated protein titrated into 30 nM OG488-BR, 50 uM PCPS; n=1 assumed
T1 construct: range 1-810;range 1492-2196; Single-chain cofactor-like variant; All residue numbers count on mature Factor V (add 28 for the precursor)
T1 sequence (P12259 other isoform, or with tags, fused parts or gaps, form in doubt): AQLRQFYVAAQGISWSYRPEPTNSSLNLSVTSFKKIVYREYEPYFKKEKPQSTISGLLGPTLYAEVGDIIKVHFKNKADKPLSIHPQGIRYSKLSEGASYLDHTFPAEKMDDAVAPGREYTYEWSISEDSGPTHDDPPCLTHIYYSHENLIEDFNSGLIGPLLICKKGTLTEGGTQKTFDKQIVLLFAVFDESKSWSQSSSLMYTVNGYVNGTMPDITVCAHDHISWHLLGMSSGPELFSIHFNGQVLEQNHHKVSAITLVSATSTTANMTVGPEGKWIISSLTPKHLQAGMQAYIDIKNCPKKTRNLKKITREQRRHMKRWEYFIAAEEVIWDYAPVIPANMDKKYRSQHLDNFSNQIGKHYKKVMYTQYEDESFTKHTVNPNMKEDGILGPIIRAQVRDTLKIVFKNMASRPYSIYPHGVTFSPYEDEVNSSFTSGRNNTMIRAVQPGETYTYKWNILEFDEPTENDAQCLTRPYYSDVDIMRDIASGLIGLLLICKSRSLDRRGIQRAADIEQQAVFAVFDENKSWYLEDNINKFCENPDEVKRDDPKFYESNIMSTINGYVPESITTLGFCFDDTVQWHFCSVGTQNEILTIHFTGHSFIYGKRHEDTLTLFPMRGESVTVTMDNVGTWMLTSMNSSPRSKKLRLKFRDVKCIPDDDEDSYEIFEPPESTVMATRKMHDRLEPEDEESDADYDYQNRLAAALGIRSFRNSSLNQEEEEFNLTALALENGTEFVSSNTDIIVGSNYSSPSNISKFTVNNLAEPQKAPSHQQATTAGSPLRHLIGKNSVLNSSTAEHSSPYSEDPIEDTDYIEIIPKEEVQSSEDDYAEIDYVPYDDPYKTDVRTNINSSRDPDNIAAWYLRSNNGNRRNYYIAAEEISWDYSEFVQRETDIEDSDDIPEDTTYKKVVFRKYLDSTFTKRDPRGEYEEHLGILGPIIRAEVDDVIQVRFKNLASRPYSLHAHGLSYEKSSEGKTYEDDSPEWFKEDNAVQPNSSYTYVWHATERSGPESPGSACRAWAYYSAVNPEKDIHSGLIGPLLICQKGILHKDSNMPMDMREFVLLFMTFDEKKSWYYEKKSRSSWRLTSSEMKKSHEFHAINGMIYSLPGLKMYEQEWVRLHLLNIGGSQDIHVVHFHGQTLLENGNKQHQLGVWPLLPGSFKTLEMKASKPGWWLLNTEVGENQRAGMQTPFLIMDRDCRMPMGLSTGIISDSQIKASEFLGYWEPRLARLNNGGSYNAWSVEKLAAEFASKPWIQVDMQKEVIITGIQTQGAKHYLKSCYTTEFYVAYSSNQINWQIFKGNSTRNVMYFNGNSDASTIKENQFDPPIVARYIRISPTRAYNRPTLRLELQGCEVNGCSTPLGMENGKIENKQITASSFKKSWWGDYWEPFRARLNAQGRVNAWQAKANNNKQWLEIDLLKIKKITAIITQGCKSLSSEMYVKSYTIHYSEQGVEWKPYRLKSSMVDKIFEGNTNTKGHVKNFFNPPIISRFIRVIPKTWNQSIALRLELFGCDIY
pKd: −log10 of the molar value. Ends that are not written are not given here.
RECORDED ENDPOINT: pKd

>  <BINDER>
Oregon Green 488 maleimide-modified BR (OG488-BR) (also called fluorescently labeled FVBR) peptide: C(Oregon Green 488 maleimide)SRAWGESTPLANKPGKQSGHPKFPRVRHKSLQVRQDGGKSRLKKSQFLIKTRKKKKEK

>  <RESULT VALUE>
8.68

$$$$
